I'd appreciate it if you could supply STK11 functional score values for the items below.
B1: library; numbered along this chain (parent)
chain: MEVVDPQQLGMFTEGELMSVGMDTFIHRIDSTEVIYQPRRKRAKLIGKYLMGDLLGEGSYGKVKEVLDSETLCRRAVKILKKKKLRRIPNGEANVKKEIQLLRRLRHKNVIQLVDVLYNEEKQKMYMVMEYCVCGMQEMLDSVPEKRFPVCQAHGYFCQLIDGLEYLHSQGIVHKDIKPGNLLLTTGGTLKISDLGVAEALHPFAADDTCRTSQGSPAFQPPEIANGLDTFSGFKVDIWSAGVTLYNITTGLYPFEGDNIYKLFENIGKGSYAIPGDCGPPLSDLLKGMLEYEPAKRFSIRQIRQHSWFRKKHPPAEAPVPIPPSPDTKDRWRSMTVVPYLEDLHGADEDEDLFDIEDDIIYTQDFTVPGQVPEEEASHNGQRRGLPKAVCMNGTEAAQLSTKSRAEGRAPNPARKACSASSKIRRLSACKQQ

- Variants of: B1
- assay-notes: STK11 functional score (HeLa growth suppression), rescaled enrichment; synonymous median = 1, nonsense median = 0 (normalised score)
- test-conditions: with HeLa; variant type: missense

Query: Entry under review: `D330S` . Reported STK11 functional score?
Response: 1.47

Query: Entry under review: `C430F` . Reported STK11 functional score?
Response: 1.48

Query: Entry under review: `Q220M` . Reported STK11 functional score?
Response: 1.15

Query: Entry under review: `E317Q` . Reported STK11 functional score?
Response: 1.2

Query: Entry under review: `S404G` . Reported STK11 functional score?
Response: 1.57

Query: Entry under review: `L9I` . Reported STK11 functional score?
Response: 1.37

Query: Entry under review: `G268N` . Reported STK11 functional score?
Response: 1.03

Query: Entry under review: `T230G` . Reported STK11 functional score?
Response: 0.522

Query: Entry under review: `R40T` . Reported STK11 functional score?
Response: 1.68

Query: Entry under review: `G227F` . Reported STK11 functional score?
Response: 1.14

Query: Entry under review: `L263E` . Reported STK11 functional score?
Response: 1.04

Query: Entry under review: `K84E` . Reported STK11 functional score?
Response: 0.845

Query: Entry under review: `W239K` . Reported STK11 functional score?
Response: 0.155

Query: Entry under review: `F298R` . Reported STK11 functional score?
Response: 0.428

Query: Entry under review: `E375Q` . Reported STK11 functional score?
Response: 1.12

Query: Entry under review: `H154G` . Reported STK11 functional score?
Response: 0.183

Query: Entry under review: `A218H` . Reported STK11 functional score?
Response: 0.853

Query: Entry under review: `F234S` . Reported STK11 functional score?
Response: 1.1

Query: Entry under review: `F354S` . Reported STK11 functional score?
Response: 1.34

Query: Entry under review: `T71W` . Reported STK11 functional score?
Response: 1.13

Query: Entry under review: `S325T` . Reported STK11 functional score?
Response: 1.17

Query: Entry under review: `I35A` . Reported STK11 functional score?
Response: 1.43

Query: Entry under review: `Y49Q` . Reported STK11 functional score?
Response: 0.0367

Query: Entry under review: `Y272G` . Reported STK11 functional score?
Response: 1.2

Query: Entry under review: `E374K` . Reported STK11 functional score?
Response: 1.47

Query: Entry under review: `C134F` . Reported STK11 functional score?
Response: 0.425

Query: Entry under review: `D284A` . Reported STK11 functional score?
Response: 0.668

Query: Entry under review: `P89S` . Reported STK11 functional score?
Response: 0.816

Query: Entry under review: `Y246L` . Reported STK11 functional score?
Response: 0.818

Query: Entry under review: `E16A` . Reported STK11 functional score?
Response: 1.53

Query: Entry under review: `V95W` . Reported STK11 functional score?
Response: 0.452

Query: Entry under review: `H345P` . Reported STK11 functional score?
Response: 1.29

Query: Entry under review: `D284H` . Reported STK11 functional score?
Response: 1.14

Query: Entry under review: `R425L` . Reported STK11 functional score?
Response: 1.4

Query: Entry under review: `M22G` . Reported STK11 functional score?
Response: 1.07

Query: Entry under review: `L282D` . Reported STK11 functional score?
Response: 1.26

Query: Entry under review: `K96D` . Reported STK11 functional score?
Response: 1.27

Query: Entry under review: `P38M` . Reported STK11 functional score?
Response: 1.09

Query: Entry under review: `D350L` . Reported STK11 functional score?
Response: 1.6

Query: Entry under review: `M335R` . Reported STK11 functional score?
Response: 1.46

Query: Entry under review: `Y340K` . Reported STK11 functional score?
Response: 1.6

Query: Entry under review: `D207P` . Reported STK11 functional score?
Response: 1.01

Query: Entry under review: `C278I` . Reported STK11 functional score?
Response: 0.402

Query: Entry under review: `D355I` . Reported STK11 functional score?
Response: 1.18

Query: Entry under review: `I356D` . Reported STK11 functional score?
Response: 1.27

Query: Entry under review: `K122W` . Reported STK11 functional score?
Response: 1.4
